- measured.on: EGFR (T790M, L858R) (h) (Homo sapiens (Human), UniProt P00533, L858R/T790M)
- Sequence (P00533 25-1210 T790M/L858R): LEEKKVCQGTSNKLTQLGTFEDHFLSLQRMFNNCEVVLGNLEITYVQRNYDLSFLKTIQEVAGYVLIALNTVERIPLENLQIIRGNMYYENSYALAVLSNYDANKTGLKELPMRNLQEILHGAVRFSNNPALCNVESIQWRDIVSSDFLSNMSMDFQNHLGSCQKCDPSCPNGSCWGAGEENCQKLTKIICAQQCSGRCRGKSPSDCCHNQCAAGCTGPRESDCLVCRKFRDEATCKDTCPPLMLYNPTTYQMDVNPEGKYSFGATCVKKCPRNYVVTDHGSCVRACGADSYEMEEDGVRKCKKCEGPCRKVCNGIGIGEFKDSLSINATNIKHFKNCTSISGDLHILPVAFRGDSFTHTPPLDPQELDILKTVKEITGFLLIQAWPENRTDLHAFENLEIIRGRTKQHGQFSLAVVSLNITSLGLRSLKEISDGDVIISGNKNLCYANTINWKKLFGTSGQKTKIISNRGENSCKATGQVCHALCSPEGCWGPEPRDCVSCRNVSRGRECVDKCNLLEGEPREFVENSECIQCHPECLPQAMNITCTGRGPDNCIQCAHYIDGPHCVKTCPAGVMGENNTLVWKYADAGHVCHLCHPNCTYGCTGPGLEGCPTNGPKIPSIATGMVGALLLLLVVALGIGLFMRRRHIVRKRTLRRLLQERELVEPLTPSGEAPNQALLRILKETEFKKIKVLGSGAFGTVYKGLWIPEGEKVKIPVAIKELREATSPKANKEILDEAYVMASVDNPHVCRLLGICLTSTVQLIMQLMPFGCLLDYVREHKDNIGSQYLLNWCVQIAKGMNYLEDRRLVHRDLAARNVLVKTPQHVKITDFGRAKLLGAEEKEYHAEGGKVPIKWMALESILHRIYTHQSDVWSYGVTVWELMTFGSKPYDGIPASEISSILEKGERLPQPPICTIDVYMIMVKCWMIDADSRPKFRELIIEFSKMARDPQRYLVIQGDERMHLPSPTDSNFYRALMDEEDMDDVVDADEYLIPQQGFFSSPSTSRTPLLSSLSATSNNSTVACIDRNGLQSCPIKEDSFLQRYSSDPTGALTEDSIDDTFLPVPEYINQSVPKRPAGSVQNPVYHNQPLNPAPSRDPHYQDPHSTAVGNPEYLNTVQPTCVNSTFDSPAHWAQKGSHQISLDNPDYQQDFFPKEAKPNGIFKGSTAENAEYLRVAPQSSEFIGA
- procedure.text: Kinase assay, single dose inhibition (Millipore, 33P-ATP filter binding)
- Assay type: biochemical
- setup.conditions: 0.1 μM test compound, 10 μM ATP; remaining activity relative to DMSO control = 100%
quantity.measured: Activity (control) % EGFR (T790M, L858R) (h) (%)
Kindly provide the numeric value in % only, without the unit symbol.

C=CC(=O)Nc1ccc(N2CCN(C)CC2)c(Nc2ncc(Cl)c(Nc3ccccc3C(=O)C(=O)N(C)C)n2)c1 [Example 135]: 95
C=CC(=O)Nc1ccc(OC)c(Nc2ncc(Cl)c(Nc3ccccc3C(=O)C(=O)N(C)C)n2)c1 [Example 67]: 9
C=C(CN(C)CCN(C)C)C(=O)Nc1ccc(OC)c(Nc2ncc(Cl)c(Nc3ccccc3C(=O)C(=O)N(C)C)n2)c1 [Example 126]: 2

Sample CCC(=O)Nc1cc(Nc2ncc(Cl)c(Nc3ccccc3C(=O)C(=O)N(C)C)n2)ccc1OCCN(C)C [Example 120] — what was its Activity (control) % EGFR (T790M, L858R) (h)? 14

* * *

- measured.on: EGFR (T790M, L858R) (h) (Homo sapiens (Human), UniProt P00533, L858R/T790M)
- procedure.text: Kinase assay, single dose inhibition (Millipore, 33P-ATP filter binding)
- Format: biochemical
- setup.conditions: 0.1 μM test compound, 10 μM ATP; remaining activity relative to DMSO control = 100%
Each item that follows carries a reported Activity (control) % EGFR (T790M, L858R) (h).
Kindly provide the numeric value in % only, without the unit symbol.

Solved cases below.
COc1ccc(NC(=O)/C=C/CN2CCCCC2)cc1Nc1ncc(Cl)c(Nc2ccccc2C(=O)C(=O)N(C)C)n1: 9
C=CC(=O)Nc1cc(Nc2ncc(Cl)c(Nc3ccccc3C(=O)C(=O)N(C)C)n2)c(OC)cc1F: 24
C=CC(=O)Nc1cc(Nc2ncc(Cl)c(Nc3ccccc3C(=O)C(=O)N(C)CCN(C)C)n2)ccc1OC: 5

Here is another compound to look at.
Form field: Activity (control) % EGFR (T790M, L858R) (h) recorded for `C=C(CN1CCCCC1)C(=O)Nc1ccc(OC)c(Nc2ncc(Cl)c(Nc3ccccc3C(=O)C(=O)N(C)C)n2)c1` with EGFR (T790M, L858R) (h) (Homo sapiens (Human), UniProt P00533, L858R/T790M) (enter value) 3

* * *

- measured.on: EGFR (T790M, L858R) (h) (Homo sapiens (Human), UniProt P00533, L858R/T790M)
- procedure.text: Kinase assay, single dose inhibition (Millipore, 33P-ATP filter binding)
- Format: biochemical
- setup.conditions: 0.1 μM test compound, 10 μM ATP; remaining activity relative to DMSO control = 100%
Binarize Activity (control) % EGFR (T790M, L858R) (h) at 30%; below is met, at or above is not met.

These recorded examples may help you get a feel for the data.
C=C(CN1CCOCC1)C(=O)Nc1ccc(OC)c(Nc2ncc(Cl)c(Nc3ccccc3C(=O)C(=O)N(C)C)n2)c1: met
C=CC(=O)Nc1cc(Nc2ncc(Cl)c(Nc3ccccc3C(=O)C(=O)N(C)C)n2)ccc1OC: met
C=CC(=O)Nc1ccc(OC2CCOC2)c(Nc2ncc(Cl)c(Nc3ccccc3C(=O)C(=O)N(C)C)n2)c1 (stereo not shown): not met
C=CC(=O)Nc1ccc(OC)c(Nc2ncc(Cl)c(Nc3ccccc3C(=O)C(=O)N(CC)CC)n2)c1: met
COc1cc(Nc2ncc(Cl)c(Nc3ccccc3C(=O)C(=O)N(C)C)n2)ccc1N1CCOCC1: met

Hello, I'm reviewing records and need to know if Activity (control) % EGFR (T790M, L858R) (h) of `COc1cc(Nc2ncc(Cl)c(Nc3ccccc3C(=O)C(=O)N(C)C)n2)ccc1N1CCN(C(C)=O)CC1` is below 30%. Could you check? met
